biological target: cloned human δ-opioid receptor (Homo sapiens); construct: expressed in transfected cells; assay: Inhibition of DPDPE-stimulated [35S]GTPγS binding; format: biochemical
Sequence (P41143 whole entry): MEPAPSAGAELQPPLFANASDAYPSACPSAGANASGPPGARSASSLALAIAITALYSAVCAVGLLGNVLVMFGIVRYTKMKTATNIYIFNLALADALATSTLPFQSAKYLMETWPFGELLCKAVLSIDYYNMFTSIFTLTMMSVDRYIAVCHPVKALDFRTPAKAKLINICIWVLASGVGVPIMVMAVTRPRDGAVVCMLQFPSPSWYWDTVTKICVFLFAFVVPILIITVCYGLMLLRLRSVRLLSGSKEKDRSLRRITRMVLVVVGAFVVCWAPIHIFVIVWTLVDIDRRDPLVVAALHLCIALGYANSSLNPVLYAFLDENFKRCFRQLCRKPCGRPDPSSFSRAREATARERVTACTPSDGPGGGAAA
READOUT: Kb (nM)

[
  {
    "COMPOUND": "COc1cc(C(=O)N[C@H](CN2CCN(c3cccc(O)c3)[C@@H](C)C2)C(C)C)ccc1Oc1ccccc1O.Cl.Cl [Compound 19m, Dihydrochloride]",
    "MEASURED ON": "cloned human δ-opioid receptor (Homo sapiens)",
    "UNITS": "nM",
    "MEASURED": 67
  },
  {
    "COMPOUND": "COc1cc(C(=O)N[C@H](CN2CCN(c3cccc(O)c3)[C@@H](C)C2)C(C)C)ccc1Oc1cc(C)ccc1O.Cl.Cl [Compound 19o, Dihydrochloride]",
    "MEASURED ON": "cloned human δ-opioid receptor (Homo sapiens)",
    "UNITS": "nM",
    "MEASURED": 37
  },
  {
    "COMPOUND": "Cc1cccc(Oc2ccc(C(=O)N[C@H](CN3CCN(c4cccc(O)c4)[C@@H](C)C3)C(C)C)c(O)c2)c1.Cl.Cl [Compound 19l, Dihydrochloride]",
    "MEASURED ON": "cloned human δ-opioid receptor (Homo sapiens)",
    "UNITS": "nM",
    "MEASURED": 233
  }
]

====

target: cloned human μ-opioid receptor (Homo sapiens, UniProt P35372); construct: expressed in transfected cells; assay: Inhibition of DAMGO-stimulated [35S]GTPγS binding; type: biochemical; conditions: antagonism of DAMGO-stimulated [35S]GTPγS binding, cloned human μ receptor
Sequence (P35372 whole entry): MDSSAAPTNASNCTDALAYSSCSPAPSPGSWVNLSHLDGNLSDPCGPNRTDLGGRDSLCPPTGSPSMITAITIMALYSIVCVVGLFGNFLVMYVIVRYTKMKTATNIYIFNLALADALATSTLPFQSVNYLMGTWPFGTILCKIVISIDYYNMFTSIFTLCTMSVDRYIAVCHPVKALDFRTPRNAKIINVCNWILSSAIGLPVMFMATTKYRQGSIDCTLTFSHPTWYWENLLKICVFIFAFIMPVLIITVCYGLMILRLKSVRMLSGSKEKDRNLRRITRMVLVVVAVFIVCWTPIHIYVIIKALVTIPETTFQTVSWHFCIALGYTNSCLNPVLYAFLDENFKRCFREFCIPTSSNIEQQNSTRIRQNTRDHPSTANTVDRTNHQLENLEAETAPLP
Could you label it fulfilled if measured μ, DAMGO Ke is 20 nM or higher, and not fulfilled otherwise?

[
  {
    "MOLECULE": "CC(C)[C@@H](CN1CCN(c2cccc(O)c2)[C@@H](C)C1)NC(=O)c1ccc(Oc2ccc(O)cc2)cc1.Cl.Cl [Compound 6g]",
    "MEASURED ON": "cloned human μ-opioid receptor (Homo sapiens, UniProt P35372)",
    "LABEL CLASS": "fulfilled"
  },
  {
    "MOLECULE": "CC(C)[C@@H](CN1CCN(c2cccc(O)c2)[C@@H](C)C1)NC(=O)c1ccc(Oc2ccccc2O)c(Cl)c1.Cl.Cl [Compound 19n]",
    "MEASURED ON": "cloned human μ-opioid receptor (Homo sapiens, UniProt P35372)",
    "LABEL CLASS": "fulfilled"
  },
  {
    "MOLECULE": "CC(C)[C@@H](CN1CCN(c2cccc(O)c2)[C@@H](C)C1)NC(=O)c1ccc(Oc2cccc(F)c2)cc1.Cl.Cl [Compound 6c]",
    "MEASURED ON": "cloned human μ-opioid receptor (Homo sapiens, UniProt P35372)",
    "LABEL CLASS": "fulfilled"
  },
  {
    "MOLECULE": "COc1ccc(Oc2ccc(C(=O)N[C@H](CN3CCN(c4cccc(O)c4)[C@@H](C)C3)C(C)C)cc2)cc1.Cl.Cl [Compound 6j]",
    "MEASURED ON": "cloned human μ-opioid receptor (Homo sapiens, UniProt P35372)",
    "LABEL CLASS": "not fulfilled"
  },
  {
    "MOLECULE": "COc1ccccc1Oc1ccc(C(=O)N[C@H](CN2CCN(c3cccc(O)c3)[C@@H](C)C2)C(C)C)cc1.Cl.Cl [Compound 6e]",
    "MEASURED ON": "cloned human μ-opioid receptor (Homo sapiens, UniProt P35372)",
    "LABEL CLASS": "fulfilled"
  },
  {
    "MOLECULE": "Cc1cccc(Oc2ccc(C(=O)N[C@H](CN3CCN(c4cccc(O)c4)[C@@H](C)C3)C(C)C)cc2)c1.Cl.Cl [Compound 6d]",
    "MEASURED ON": "cloned human μ-opioid receptor (Homo sapiens, UniProt P35372)",
    "LABEL CLASS": "not fulfilled"
  },
  {
    "MOLECULE": "Cc1cc(C(=O)N[C@H](CN2CCN(c3cccc(O)c3)[C@@H](C)C2)C(C)C)ccc1Oc1ccccc1.Cl.Cl [Compound 6k]",
    "MEASURED ON": "cloned human μ-opioid receptor (Homo sapiens, UniProt P35372)",
    "LABEL CLASS": "not fulfilled"
  }
]
